System: primary cultured cells of mouse fetus-derived dorsal root ganglia (DRGs)
Test: Suppression of axonal degeneration after axotomy in DRG explant culture
Assay type: cell-based
Conditions: Mus musculus; minimum concentration at which axonal degeneration was suppressed (DI 0.3 or less); 24 hours after axotomy; read-out: Evaluation on protection against degeneration

compound | minimal effective concentration
COc1cccc(OCCOCCNC(=O)c2cccnc2)c1 [compound 99] | 0.01 to 0.1 µM
O=C(NCc1ccc(NC(=O)c2ccc(F)cc2)nc1)c1cccnc1 [Compound 117] | ≤ 0.01 µM
O=C(NCc1ccc(NC(=O)C2CCCCC2)nc1)c1cccnc1 [Compound 113] | ≤ 0.01 µM
O=C(NCCCC1NC(=O)C(CCCNC(=O)c2cccnc2)NC1=O)c1cccnc1 (stereo not drawn) [compound 103] | 0.01 to 0.1 µM
O=C(NCc1ccc(NC(=O)c2ccncc2)nc1)c1cccnc1 [Compound 124] | ≤ 0.01 µM
O=C(Cc1ccc(F)cc1)Nc1ccc(CNC(=O)c2cccnc2)cn1 [Compound 144] | ≤ 0.01 µM

====

Test system: primary cultured cells of mouse fetus-derived dorsal root ganglia (DRGs)
Assay: Suppression of axonal degeneration after axotomy in DRG explant culture
Type: cell-based
Conditions: Mus musculus; minimum concentration at which axonal degeneration was suppressed (DI 0.3 or less); 24 hours after axotomy; read-out: Evaluation on protection against degeneration
Attribute: minimal effective concentration

molecule | minimal effective concentration
O=C(NCc1ccc(NC(=O)c2ccc(C(F)(F)F)cc2)nc1)c1cccnc1 [compound 83] | ≤ 0.01 µM
O=C(/C=C/c1ccccc1)Nc1ccc(CNC(=O)c2cccnc2)cn1 [compound 74] | 0.01 to 0.1 µM
COc1ccc(/C=C/C(=O)Nc2ccc(CNC(=O)c3cccnc3)cn2)cc1 [Compound 180] | ≤ 0.01 µM
C#CCCOc1ccc(C(=O)NCCCCCCNC(=O)c2cccnc2)cc1 [compound 68] | ≤ 0.01 µM
O=C(NCc1ccc(NC(=O)c2ccc3ncccc3c2)nc1)c1cccnc1 [Compound 122] | ≤ 0.01 µM
O=C(COc1cccc(C(F)(F)F)c1)Nc1ccc(CNC(=O)c2cccnc2)cn1 [Compound 175] | 0.01 to 0.1 µM
O=C(NCCOCCOc1ccc(CNC(=O)c2cccnc2)cc1)c1cccnc1 [compound 54] | ≤ 0.01 µM
O=C(NCCCCCCCCOCCOCCO)c1cccnc1 [compound 6] | ≤ 0.01 µM
O=C(/C=C/c1cccnc1)Nc1cccc(OC(=O)/C=C/c2cccnc2)c1 [compound 33] | 0.01 to 0.1 µM
O=C(NCCCCCC1CCN(CCO)CC1)c1cccnc1 [compound 2] | ≤ 0.01 µM
O=C(/C=C/c1cccnc1)NCc1ccc(NC(=O)/C=C/c2cccnc2)cc1 [compound 62] | ≤ 0.01 µM
O=C(NCCCOCCOCCCNC(=O)c1cccnc1)c1cccnc1 [compound 35] | ≤ 0.01 µM
CC(C)C(=O)N(C(=O)C(C)C)c1ccc(CNC(=O)c2cccnc2)cn1 [Compound 172] | ≤ 0.01 µM
O=C(/C=C/c1cccnc1)NCCOCCOc1cccc(O)c1 [compound 26] | ≤ 0.01 µM
CCC(C)CC(=O)Nc1ccc(CNC(=O)c2cccnc2)cn1 (stereo not shown) [Compound 165] | ≤ 0.01 µM
O=C(NCc1ccc(NC(=O)c2cccc(Cl)c2)nc1)c1cccnc1 [Compound 132] | ≤ 0.01 µM
CCCCCC(=O)Nc1ccc(CNC(=O)c2cccnc2)cn1 [Compound 160] | ≤ 0.01 µM
O=C(Cc1ccc(C(F)(F)F)cc1)Nc1ccc(CNC(=O)c2cccnc2)cn1 [compound 89] | ≤ 0.01 µM
O=C(NCCCOc1ccc(CNC(=O)c2ccccc2)cc1)c1cccnc1 [compound 15] | ≤ 0.01 µM
O=C(NCCCCCCNC(=O)c1cncc(O)c1)c1cccnc1 [compound 57] | 0.01 to 0.1 µM
O=C(NCc1ccc(NC(=O)c2cccc(C(F)(F)F)c2)nc1)c1cccnc1 [compound 82] | ≤ 0.01 µM
O=C(NCc1ccc(NC(=O)c2cc(F)cc(C(F)(F)F)c2)nc1)c1cccnc1 [compound 84] | 0.01 to 0.1 µM
CC(=O)NCc1ccc(OCCOCCNC(=O)c2cccnc2)cc1 [compound 21] | ≤ 0.01 µM
O=C(NCc1ccc(NC(=O)c2ccc(F)cc2F)nc1)c1cccnc1 [Compound 139] | ≤ 0.01 µM
O=C(NCCCCC1NC(=O)C(CCCCNC(=O)c2cccnc2)NC1=O)c1cccnc1 (stereo not shown) [compound 104] | 0.1 to 1 µM
O=C(CCc1ccccc1)NCc1ccc(CNC(=O)c2cccnc2)cc1 [compound 65] | ≤ 0.01 µM
O=C(NCCOCCOc1ccccc1)c1cccnc1 [compound 98] | 0.01 to 0.1 µM
CCc1ccc(C(=O)Nc2ccc(CNC(=O)c3cccnc3)cn2)cc1 [Compound 131] | ≤ 0.01 µM

====

Molecular target: hSARM1 (Homo sapiens)
Sequence (Q6SZW1 28-724): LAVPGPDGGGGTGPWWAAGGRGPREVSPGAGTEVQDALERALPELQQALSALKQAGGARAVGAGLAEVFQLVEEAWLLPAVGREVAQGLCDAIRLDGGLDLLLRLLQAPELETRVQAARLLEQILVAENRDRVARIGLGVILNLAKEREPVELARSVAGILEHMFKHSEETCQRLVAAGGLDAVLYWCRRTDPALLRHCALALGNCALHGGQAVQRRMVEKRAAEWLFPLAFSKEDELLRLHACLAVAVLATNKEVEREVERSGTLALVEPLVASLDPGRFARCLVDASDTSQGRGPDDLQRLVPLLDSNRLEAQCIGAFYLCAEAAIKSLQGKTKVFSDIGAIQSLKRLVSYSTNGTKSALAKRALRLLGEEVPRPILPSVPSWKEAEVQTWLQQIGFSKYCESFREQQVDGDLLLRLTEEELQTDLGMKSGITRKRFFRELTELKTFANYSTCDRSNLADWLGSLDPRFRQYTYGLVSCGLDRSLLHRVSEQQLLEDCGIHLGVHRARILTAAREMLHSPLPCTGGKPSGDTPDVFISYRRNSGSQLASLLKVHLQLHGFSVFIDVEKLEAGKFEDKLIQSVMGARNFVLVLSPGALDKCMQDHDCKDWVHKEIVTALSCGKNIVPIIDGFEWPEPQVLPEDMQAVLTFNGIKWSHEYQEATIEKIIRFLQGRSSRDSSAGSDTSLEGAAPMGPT
Experiment: Human SARM1 activity measurement in HEK293 cells transiently transfected with ΔN-hSARM1 (PC6 fluorescent probe)
Assay type: cell-based
Set-up: expressed in transfected cells; host or cells: HEK293, pcDNA3 expression vector
Settings: inhibition rate; compound 30 µM; PC6 50 µM; HEK293 cells expressing ΔN-hSARM1; approximately 48 hours from transfection; read-out: Evaluation on hSARM1 inhibitory
test_readout: inhibition at 30 µM

compound | test_readout | reading
O=C(/C=C/c1cccnc1)Nc1ccc(CNC(=O)c2ccccc2)cc1 [compound 64] | inhibition at 30 µM | > 75%
O=C(NCc1ccc(NC(=O)c2ccc(Cl)cc2)nc1)c1cccnc1 [Compound 118] | inhibition at 30 µM | > 75%
NCCCOCCOCCCNC(=O)c1cccnc1 [compound 106] | inhibition at 30 µM | > 25%
CC(C)CC(=O)Nc1ccc(CNC(=O)c2cccnc2)cn1 [Compound 162] | inhibition at 30 µM | > 25%
COc1cccc(OCCCNC(=O)/C=C/c2cccnc2)c1 [compound 18] | inhibition at 30 µM | > 75%
COc1cccc(OCCOCCNC(=O)c2cccnc2)c1 [compound 99] | inhibition at 30 µM | > 50%
O=C(/C=C/c1cccnc1)NCCOCCOc1cccc(O)c1 [compound 26] | inhibition at 30 µM | > 75%
O=C(NCc1ccc(NC(=O)c2ccccc2F)nc1)c1cccnc1 [Compound 133] | inhibition at 30 µM | > 75%
O=C(/C=C/c1cccnc1)NCCCNC1CCN(C(=O)c2ccccc2)CC1 [compound 12] | inhibition at 30 µM | > 75%
COC(=O)c1ccc(OCCOCCNC(=O)/C=C/c2cccnc2)cc1 [compound 31] | inhibition at 30 µM | > 75%
O=C(NCc1ccc(NC(=O)C2CCOCC2)cc1)c1cccnc1 [compound 108] | inhibition at 30 µM | > 75%
O=C(/C=C/c1cccnc1)NCc1cccc(NC(=O)/C=C/c2cccnc2)c1 [compound 61] | inhibition at 30 µM | > 75%
